FYI, the data here is from PubChem BioAssay AID1963963.

- Tested on: 958667-338-R-J2-PDC tumor spheroids viability
- Assay Method Text: Anticancer human tumor 958667-338-R-J2-PDC patient-derived colon adenocarcinoma cell line growth inhibition [PI3K]
- Details: curve of first compound; second compound 0.316 µM; spheroids with HUVEC and MSC
pIC50: −log10 of the molar value.
Assign pIC50 to each entry below.

The examples below pair each entry with its known result.
INSERT INTO results (compound, result) VALUES
  ('C[C@@H](NC(=O)c1ncnc(N)c1Cl)c1ncc(C(=O)Nc2cc(C(F)(F)F)c(Cl)cn2)s1 + COc1c(OCCCN2CCOCC2)ccc2c3n(c(=NC(=O)c4cnc(N)nc4)nc12)CCN3', '> 7.50'),
  ('CC(=O)c1c(C)c2cnc(Nc3ccc(N4CCNCC4)cn3)nc2n(C2CCCC2)c1=O + CC(Nc1ccc2c(c1)OCCn1cc(N3C(=O)OCC3C(F)F)nc1-2)C(N)=O', '< 7.00');

Now, please, on to the next compound.
Q) For CC(C)NCC(C(=O)N1CCN(c2ncnc3c2C(C)CC3O)CC1)c1ccc(Cl)cc1 (stereo not drawn) + CC(Nc1ncnc2nc[nH]c12)c1cc2cccc(Cl)c2c(=O)n1-c1ccccc1 , what is its reported pIC50?
A) < 5.00

* * *

- Test system: 958667-338-R-J2-PDC tumor spheroids viability
- Assay Method Text: Anticancer human tumor 958667-338-R-J2-PDC cell line growth inhibition [PI3K];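 further: spheroids exposed to compounds for seven days before readout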
- Details: curve of first compound; second compound 0.316 µM; spheroids with HUVEC and MSC
pIC50: −log10 of the molar value.
Measured Attribute: pIC50

INSERT INTO results (molecule, result) VALUES
  ('CC1(C)CCC(Nc2ncc(C(F)(F)F)c(-c3c[nH]c4c(P(C)(C)=O)c(C#N)ccc34)n2)CN1 (stereo not drawn) + COc1c(OCCCN2CCOCC2)ccc2c3n(c(=NC(=O)c4cnc(N)nc4)nc12)CCN3', '> 7.50'),
  ('Cn1ncnc1[C@H]1c2n[nH]c(=O)c3cc(F)cc(c23)N[C@@H]1c1ccc(F)cc1 + Cc1nc(NC(=O)N2CCCC2C(N)=O)sc1-c1ccnc(C(C)(C)C(F)(F)F)c1', '< 7.00');

Now, please, on to the next molecule.
Q) Checklist item: pIC50 tested on 958667-338-R-J2-PDC tumor spheroids viability, entry CC1(C)CCC(CN2CCN(c3ccc(C(=O)NS(=O)(=O)c4ccc(NCC5CCOCC5)c([N+](=O)[O-])c4)c(Oc4cnc5[nH]ccc5c4)c3)CC2)=C(c2ccc(Cl)cc2)C1 + COc1c(OCCCN2CCOCC2)ccc2c3n(c(=NC(=O)c4cnc(N)nc4)nc12)CCN3 , value?
A) > 7.50

* * *

Assign viability, T/C to each entry below.
- Test system: 958667-338-R-J2-PDC tumor spheroids viability
- Assay Method Text: Anticancer human tumor 958667-338-R-J2-PDC cell line growth inhibition [PI3K];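 further: spheroids exposed to compounds for seven days before readout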
- Details: second compound 0.00316 µM; first compound 0.0316 µM; stronger effect = lower value; spheroids with HUVEC and MSC
Answers are plain numbers, in %.

INSERT INTO results (compound, measured_on, number) VALUES
  ('CNC(=O)c1ccc(N2C(=S)N(c3ccc(C#N)c(C(F)(F)F)c3)C(=O)C2(C)C)cc1F + COc1c(OCCCN2CCOCC2)ccc2c3n(c(=NC(=O)c4cnc(N)nc4)nc12)CCN3', '958667-338-R-J2-PDC tumor spheroids viability', 95.2),
  ('CC(C)NCC(C(=O)N1CCN(c2ncnc3c2C(C)CC3O)CC1)c1ccc(Cl)cc1 (stereo not given) + COc1c(OCCCN2CCOCC2)ccc2c3n(c(=NC(=O)c4cnc(N)nc4)nc12)CCN3', '958667-338-R-J2-PDC tumor spheroids viability', 94.4),
  ('CC1(C)CCC(Nc2ncc(C(F)(F)F)c(-c3c[nH]c4c(P(C)(C)=O)c(C#N)ccc34)n2)CN1 (stereo not given) + COc1c(OCCCN2CCOCC2)ccc2c3n(c(=NC(=O)c4cnc(N)nc4)nc12)CCN3', '958667-338-R-J2-PDC tumor spheroids viability', 90),
  ('C[C@@H](NC(=O)c1ncnc(N)c1Cl)c1ncc(C(=O)Nc2cc(C(F)(F)F)c(Cl)cn2)s1 + CC(Nc1ccc2c(c1)OCCn1cc(N3C(=O)OCC3C(F)F)nc1-2)C(N)=O', '958667-338-R-J2-PDC tumor spheroids viability', 112),
  ('Cn1ncc(Cl)c1-c1cc(C(=O)NC(CN)Cc2cccc(F)c2)sc1Cl (stereo not given) + CC(Nc1ccc2c(c1)OCCn1cc(N3C(=O)OCC3C(F)F)nc1-2)C(N)=O', '958667-338-R-J2-PDC tumor spheroids viability', 98.9),
  ('CC(Cn1ccc(-c2ccc(C#N)c(Cl)c2)n1)NC(=O)c1cc(C(C)O)[nH]n1 (stereo not given) + COc1c(OCCCN2CCOCC2)ccc2c3n(c(=NC(=O)c4cnc(N)nc4)nc12)CCN3', '958667-338-R-J2-PDC tumor spheroids viability', 109),
  ('C[C@@H](NC(=O)c1ncnc(N)c1Cl)c1ncc(C(=O)Nc2cc(C(F)(F)F)c(Cl)cn2)s1 + COc1c(OCCCN2CCOCC2)ccc2c3n(c(=NC(=O)c4cnc(N)nc4)nc12)CCN3', '958667-338-R-J2-PDC tumor spheroids viability', 96.1),
  ('CC1(C)CCC(CN2CCN(c3ccc(C(=O)NS(=O)(=O)c4ccc(NCC5CCOCC5)c([N+](=O)[O-])c4)c(Oc4cnc5[nH]ccc5c4)c3)CC2)=C(c2ccc(Cl)cc2)C1 + COc1c(OCCCN2CCOCC2)ccc2c3n(c(=NC(=O)c4cnc(N)nc4)nc12)CCN3', '958667-338-R-J2-PDC tumor spheroids viability', 76.5);

// each listed compound needs a value for viability, T/C
1. CC1(C)CCC(CN2CCN(c3ccc(C(=O)NS(=O)(=O)c4ccc(NCC5CCOCC5)c([N+](=O)[O-])c4)c(Oc4cnc5[nH]ccc5c4)c3)CC2)=C(c2ccc(Cl)cc2)C1 + CC(Nc1ccc2c(c1)OCCn1cc(N3C(=O)OCC3C(F)F)nc1-2)C(N)=O
2. C#Cc1c(F)ccc2cc(O)cc(-c3ncc4c(N5CC6CCC(C5)N6)nc(OCC56CCCN5CC(F)C6)nc4c3F)c12 (stereo not given) + CC(Nc1ccc2c(c1)OCCn1cc(N3C(=O)OCC3C(F)F)nc1-2)C(N)=O

A)
92.8
95.2
